- condition_summary: 288.15 K; 101 kPa; Liquid; Sing-around technique in a fixed-path interferometer
observable: speed of sound (m/s)

[
  {
    "molecule": "CC(C)O [propan-2-ol]",
    "speed of sound (m/s)": 1177
  },
  {
    "molecule": "CCCCCO [pentan-1-ol]",
    "speed of sound (m/s)": 1310
  },
  {
    "molecule": "CCC(C)O (stereo unspecified) [butan-2-ol]",
    "speed of sound (m/s)": 1249
  },
  {
    "molecule": "CCCO [propan-1-ol]",
    "speed of sound (m/s)": 1243
  },
  {
    "molecule": "CO [methanol]",
    "speed of sound (m/s)": 1137
  },
  {
    "molecule": "CCO [ethanol]",
    "speed of sound (m/s)": 1179
  }
]

----------
- experiment_notes: refractive index (Na D-line) (dimensionless)
- condition_summary: 298.15 K; 101.33 kPa; Liquid; Standard Abbe refractometry
observable: refractive index

[
  {
    "compound": "CCCO [propan-1-ol]",
    "refractive index": 1.38286
  },
  {
    "compound": "CCC(C)O (configuration not stated) [butan-2-ol]",
    "refractive index": 1.39487
  },
  {
    "compound": "CCCCCO [pentan-1-ol]",
    "refractive index": 1.40774
  },
  {
    "compound": "CC(C)O [propan-2-ol]",
    "refractive index": 1.37523
  },
  {
    "compound": "CO [methanol]",
    "refractive index": 1.32649
  },
  {
    "compound": "CCn1cc[n+](C)c1.COS(=O)(=O)[O-] [1-ethyl-3-methylimidazolium methylsulfate]",
    "refractive index": 1.48125
  },
  {
    "compound": "CCO [ethanol]",
    "refractive index": 1.35907
  }
]

----------
- condition_summary: 308.15 K; 101 kPa; Liquid; Sing-around technique in a fixed-path interferometer
observable: speed of sound (m/s)

[
  {
    "molecule": "CCC(C)O (stereo unspecified)",
    "value_units": "m/s",
    "speed of sound": 1177
  },
  {
    "molecule": "CCCCCO",
    "value_units": "m/s",
    "speed of sound": 1243
  },
  {
    "molecule": "CCO",
    "value_units": "m/s",
    "speed of sound": 1111
  },
  {
    "molecule": "CCCO",
    "value_units": "m/s",
    "speed of sound": 1174
  },
  {
    "molecule": "CO",
    "value_units": "m/s",
    "speed of sound": 1071
  },
  {
    "molecule": "CC(C)O",
    "value_units": "m/s",
    "speed of sound": 1106
  }
]

----------
- condition_summary: 308.15 K; 101 kPa; Liquid; Vibrating tube method
observable: mass density (kg/m3)

[
  {
    "compound": "CCO",
    "value_units": "kg/m3",
    "mass density": 776.87
  },
  {
    "compound": "CC(C)O",
    "value_units": "kg/m3",
    "mass density": 773.03
  },
  {
    "compound": "CCCCCO",
    "value_units": "kg/m3",
    "mass density": 803.61
  },
  {
    "compound": "CCC(C)O (stereo unspecified)",
    "value_units": "kg/m3",
    "mass density": 794.34
  },
  {
    "compound": "CO",
    "value_units": "kg/m3",
    "mass density": 777.64
  },
  {
    "compound": "CCCO",
    "value_units": "kg/m3",
    "mass density": 792.38
  }
]

----------
- condition_summary: 298.15 K; 101 kPa; Liquid; Vibrating tube method
observable: mass density (kg/m3)

[
  {
    "compound": "CCCCCO [pentan-1-ol]",
    "observable": "mass density",
    "value_units": "kg/m3",
    "quantitative_readout": 810.99
  },
  {
    "compound": "CCC(C)O (stereo unspecified) [butan-2-ol]",
    "observable": "mass density",
    "value_units": "kg/m3",
    "quantitative_readout": 802.82
  },
  {
    "compound": "CCO [ethanol]",
    "observable": "mass density",
    "value_units": "kg/m3",
    "quantitative_readout": 785.52
  },
  {
    "compound": "CCCO [propan-1-ol]",
    "observable": "mass density",
    "value_units": "kg/m3",
    "quantitative_readout": 800.5
  },
  {
    "compound": "CO [methanol]",
    "observable": "mass density",
    "value_units": "kg/m3",
    "quantitative_readout": 787.1
  },
  {
    "compound": "CC(C)O [propan-2-ol]",
    "observable": "mass density",
    "value_units": "kg/m3",
    "quantitative_readout": 781.67
  }
]

----------
- condition_summary: 298.15 K; 101 kPa; Liquid; Sing-around technique in a fixed-path interferometer
observable: speed of sound (m/s)

[
  {
    "molecule": "CO",
    "quantitative_readout": 1104
  },
  {
    "molecule": "CC(C)O",
    "quantitative_readout": 1141
  },
  {
    "molecule": "CCCCCO",
    "quantitative_readout": 1276
  },
  {
    "molecule": "CCCO",
    "quantitative_readout": 1208
  },
  {
    "molecule": "CCC(C)O (stereo unspecified)",
    "quantitative_readout": 1213
  },
  {
    "molecule": "CCO",
    "quantitative_readout": 1145
  }
]
